The reported numbers originate from PubChem BioAssay (NCATS).

Test system: CP305
test: qHTS profiling for inhibitors of Plasmodium falciparum proliferation (AID 504749); also: nearly all actives have a fitted effect of over 60% in size
particulars: P. falciparum in erythrocytes, SYBR Green DNA, 72 h; series mostly up to 28.7 µM
Inconclusive results are not listed. Calls of active or inactive are those of the source. Calls follow the shape of the dose curve; as a rule, active = well fitted inhibition curve with a large enough effect; inconclusive = small, poorly fitted or top-dose-only effect; inactive = flat fitted curve, though single readings scatter.
Response enum: 1 for active, -1 for inactive

Study these solved cases before continuing.
molecule	labelValue
C=C1C(CCl)(CCl)C2(Cl)C(Cl)C(Cl)C1(Cl)C2(Cl)Cl (stereo not given)	1
O=C(/C=C/c1cccc(F)c1)NC1CC1	-1
CCOC(=S)SSC(=S)OCC	-1

## Input Please state the recorded outcome for this molecule: CN[C@@H]1[C@H](O[C@H]2[C@H](O[C@H]3[C@H](O)[C@@H](O)[C@H](N=C(N)N)[C@@H](O)[C@@H]3N=C(N)N)O[C@@H](C)[C@]2(O)C=O)O[C@@H](CO)[C@H](O)[C@H]1O
## Output -1

## Input Here is the next molecule: C/C=C/C=C/C(=O)O
## Output -1

---

Test system: ICS
test: qHTS profiling for inhibitors of Plasmodium falciparum proliferation (AID 504749); also: nearly all actives have a fitted effect of over 60% in size
particulars: P. falciparum in erythrocytes, SYBR Green DNA, 72 h; series mostly up to 28.7 µM
Inconclusive results are not listed. Calls of active or inactive are those of the source. The call rests on the fitted dose curve; in most records, active means well fitted inhibition curve with a large enough effect; inconclusive means small, poorly fitted or top-dose-only effect; inactive means flat fitted curve, though single readings scatter.
Response enum: active, inactive

Study these solved cases before continuing.
molecule	labelValue
COc1ccc(-c2noc(CC(=O)O)c2-c2ccc(OC)cc2)cc1	inactive
Cc1ccc(S(=O)(=O)O)cc1C	inactive
NCC[C@H](O)C(=O)N[C@@H]1C[C@H](N)[C@@H](O[C@H]2O[C@H](CN)[C@@H](O)[C@H](O)[C@H]2O)[C@H](O)[C@H]1O[C@H]1O[C@H](CO)[C@@H](O)[C@H](N)[C@H]1O	inactive
C[C@]12CC[C@@H]3c4ccc(OC(=O)c5ccccc5)cc4CC[C@H]3[C@@H]1CC[C@@H]2O	active
CC12CCC(C1)C(C)(C)C2=O (configuration not stated)	inactive
CN1C(=O)C[C@@H](C(=O)N[C@@H](Cc2cnc[nH]2)C(=O)N2CCC[C@H]2C(N)=O)NC1=O	inactive
NCCO/C=C/[C@H](N)C(=O)O	inactive
O=C(OC1C[C@@H]2CC3C[C@H](C1)N2CC3=O)c1c[nH]c2ccccc12 (some centres not stated)	active
O=P(O)(O)CP(=O)(O)O	inactive
COC(=O)CC[C@H](N)C(=O)O	inactive

## Input Please state the recorded outcome for this molecule: CC1=CCC2CC1C2(C)C (configuration not stated)
## Output inactive

## Input Here is the next molecule: Cn1c(=O)c2c(ncn2CCOC(=O)C(C)(C)Oc2ccc(Cl)cc2)n(C)c1=O
## Output inactive

---

System: TAB165
test: qHTS profiling for inhibitors of Plasmodium falciparum proliferation (AID 504749); also: nearly all actives have a fitted effect of over 60% in size
particulars: P. falciparum in erythrocytes, SYBR Green DNA, 72 h; series mostly up to 28.7 µM
Results filed as inconclusive are left out. Activity calls are given as the source filed them. The call rests on the fitted dose curve; in most records, active means well fitted inhibition curve with a large enough effect; inconclusive means small, poorly fitted or top-dose-only effect; inactive means flat fitted curve, though single readings scatter.
Response enum: true (1) = active, false (0) = inactive

compound	labelValue
C#C[C@]1(O)CC[C@@H]2[C@H]3CCC4=CC(=O)CC[C@H]4[C@H]3C(=C)C[C@@]21CC	false (0)
C[C@H](CCC(=O)O)[C@H]1CC[C@H]2[C@@H]3CC[C@@H]4C[C@H](O)CC[C@]4(C)[C@H]3C[C@H](O)[C@]12C	false (0)
O=C1[O][Bi][O]c2ccccc21	false (0)
CN[C@@H]1[C@H](O[C@H]2[C@H](O[C@H]3[C@H](O)[C@@H](O)[C@H](N=C(N)N)[C@@H](O)[C@@H]3N=C(N)N)O[C@@H](C)[C@]2(O)C=O)O[C@@H](CO)[C@H](O)[C@H]1O	false (0)
O=C1CCC(c2ccccc2)(C2CCN(Cc3ccccc3)CC2)C(=O)N1 (stereo not drawn)	false (0)
Nc1nccs1	false (0)

Pending compound:
## Input Please state the recorded outcome for this compound: CSCCC(N)C(=O)O (stereo not drawn)
## Output false (0)

---

Tested on: DFO2036
test: qHTS profiling for inhibitors of Plasmodium falciparum proliferation (AID 504749); also: nearly all actives have a fitted effect of over 60% in size
particulars: P. falciparum in erythrocytes, SYBR Green DNA, 72 h; series mostly up to 28.7 µM
Inconclusive results are not listed. Activity calls are given as the source filed them. Calls follow the shape of the dose curve; as a rule, active = well fitted inhibition curve with a large enough effect; inconclusive = small, poorly fitted or top-dose-only effect; inactive = flat fitted curve, though single readings scatter.
Response enum: 1 (yes) = active, 0 (no) = inactive

molecule	labelValue
CC(=O)Nc1ccc(NC(=S)NC(=O)c2ccc(C(C)(C)C)cc2)cc1	0 (no)
CC(C)(CO)[C@@H](O)C(=O)NCCC(=O)NCCSSCCNC(=O)CCNC(=O)[C@H](O)C(C)(C)CO	0 (no)
Cc1cccc(C)c1NC(=O)C1CCCCN1C (configuration not stated)	0 (no)

## Input Please state the recorded outcome for this molecule: F[Si-2](F)(F)(F)(F)F
## Output 0 (no)

## Input Here is the next molecule: CCc1ncnc2cc(OC)c(OC)cc12
## Output 0 (no)

## Input Here is the next molecule: O=C(O)[C@H]1C(=CCO)O[C@H]2CC(=O)N12
## Output 0 (no)

## Input Here is the next molecule: C[C@]12CCC(=O)C[C@@H]1CC[C@@H]1[C@@H]2CC[C@]2(C)C=CC[C@@H]12
## Output 0 (no)

## Input Here is the next molecule: CCN(CC)C(=S)S
## Output 0 (no)

## Input Here is the next molecule: CC1=CC(=C(c2ccc(N)cc2)c2ccc(N)cc2)C=CC1=N
## Output 1 (yes)

## Input Here is the next molecule: C=CCCCCCCCCC(=O)OC
## Output 0 (no)

## Input Here is the next molecule: O=P(O)(O)OC[C@H]1O[C@](O)(COP(=O)(O)O)[C@@H](O)[C@@H]1O
## Output 0 (no)

## Input Here is the next molecule: NCCO/C=C/[C@H](N)C(=O)O
## Output 0 (no)

---

test: qHTS Assay for Lipid Storage Modulators (AID 1519)
particulars: Drosophila S3 cells, BODIPY lipid droplet/cell ratio, laser cytometry; measured here: cell count channel max response; cells loaded with oleic acid
Records with an inconclusive call do not appear.
quantityKind: max response (%)
Response body: numeric value in %, unit text excluded.

## Input State the recorded max response for this entry: Oc1ccc(/C=C/c2cc(O)cc(O)c2)cc1
## Output -23.2

---

Test system: AA1029
test: qHTS profiling for inhibitors of Plasmodium falciparum proliferation (AID 504749); also: nearly all actives have a fitted effect of over 60% in size
particulars: P. falciparum in erythrocytes, SYBR Green DNA, 72 h; series mostly up to 28.7 µM
Inconclusive results are not listed. Active and inactive are the calls of the source. Calls come from the whole dose curve; as a rule, active = well fitted inhibition curve with a large enough effect; inconclusive = small, poorly fitted or top-dose-only effect; inactive = flat fitted curve, though single readings scatter.
quantityKind: outcome

Some entries whose results are on file:
compound	outcome
Cc1ccccn1	inactive
CC(=O)N=c1sc(S(N)(=O)=O)nn1C	inactive
S=C1SCN(Cc2ccccc2)CN1Cc1ccccc1	inactive
FC(F)OC(Cl)C(F)(F)F (centres undefined)	inactive
CC(=O)Oc1cccc2c1C(=O)c1c(OC(C)=O)cc(C(=O)O)cc1C2=O	inactive
C=CC(=O)O	inactive
CCCCCCCCCCCCCCCCCC(=O)OC[C@@H](O)[C@H]1OC[C@H](O)[C@H]1O	inactive
CNC(=O)OCc1cccc(COC(=O)NC)n1	inactive
CCCCCCCCCCCC(=O)OCC(O)CO (centres undefined)	inactive
CC1(O)CCC(C(C)(C)O)CC1 (centres undefined)	inactive

Attention now turns to another entry.
## Input State the recorded outcome for this entry: CCCOC(=O)c1ccccc1O
## Output inactive

---

measurementTarget: Cytochrome P450 1A2 (Homo sapiens) (UniProt P05177)
Sequence (P05177 whole entry, looked up): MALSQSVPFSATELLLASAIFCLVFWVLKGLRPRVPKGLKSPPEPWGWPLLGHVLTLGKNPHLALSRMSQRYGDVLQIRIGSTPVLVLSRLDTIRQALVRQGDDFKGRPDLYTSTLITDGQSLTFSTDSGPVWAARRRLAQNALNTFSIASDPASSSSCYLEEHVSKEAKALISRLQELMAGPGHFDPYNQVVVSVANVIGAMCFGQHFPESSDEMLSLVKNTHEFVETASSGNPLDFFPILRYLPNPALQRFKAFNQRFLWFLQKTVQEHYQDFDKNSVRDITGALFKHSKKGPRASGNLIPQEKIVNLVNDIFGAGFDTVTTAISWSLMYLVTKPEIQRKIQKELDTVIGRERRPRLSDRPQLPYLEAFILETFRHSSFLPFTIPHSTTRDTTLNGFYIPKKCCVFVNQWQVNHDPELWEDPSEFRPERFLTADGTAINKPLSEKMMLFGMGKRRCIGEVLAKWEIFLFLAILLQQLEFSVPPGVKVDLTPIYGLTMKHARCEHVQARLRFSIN
test: p450-cyp1a2 (AID 410)
particulars: recombinant CYP1A2, luciferin-ME demethylation, luminescence; series mostly up to 25.6 µM
Results filed as inconclusive are left out. The source made the active and inactive calls. Calls follow the shape of the full dose curve.
Response enum: active, inactive

molecule	labelValue
Cc1cc(C)c(NC(=O)C[C@H](CC(=O)O)c2cccc3ccccc23)c(C(=O)N2CCC3(CCCC3)CC2)c1	inactive

## Input Please state the recorded outcome for this molecule: CN1C(=O)OC(C)(C)C1=O
## Output inactive

## Input Here is the next molecule: COc1cc(S(C)=O)ccc1-c1nc2ncccc2[nH]1 (stereo not drawn)
## Output active

## Input Here is the next molecule: CC(=O)[C@H]1CC[C@H]2[C@@H]3C=CC4=CC(=O)CC[C@@]4(C)[C@H]3CC[C@]12C
## Output inactive

## Input Here is the next molecule: O=C(O)CCC(=O)c1ccc(-c2ccccc2)cc1
## Output active

## Input Here is the next molecule: Cc1cc(-c2ccc(N=Nc3ccc4c(S(=O)(=O)O)cc(S(=O)(=O)O)c(N)c4c3O)c(C)c2)ccc1N=Nc1ccc2c(S(=O)(=O)O)cc(S(=O)(=O)O)c(N)c2c1O
## Output active

## Input Here is the next molecule: O=C(O)Cc1nn(Cc2ccc(Br)cc2F)c(=O)c2ccccc12
## Output active

## Input Here is the next molecule: CC(=O)Oc1cc(C(F)(F)F)ccc1C(=O)O
## Output inactive
